# TARGET OR TEST SYSTEM: tRNA guanine transglycosylase (TGT) (Escherichia coli)
# Sequence (P0A847 whole entry): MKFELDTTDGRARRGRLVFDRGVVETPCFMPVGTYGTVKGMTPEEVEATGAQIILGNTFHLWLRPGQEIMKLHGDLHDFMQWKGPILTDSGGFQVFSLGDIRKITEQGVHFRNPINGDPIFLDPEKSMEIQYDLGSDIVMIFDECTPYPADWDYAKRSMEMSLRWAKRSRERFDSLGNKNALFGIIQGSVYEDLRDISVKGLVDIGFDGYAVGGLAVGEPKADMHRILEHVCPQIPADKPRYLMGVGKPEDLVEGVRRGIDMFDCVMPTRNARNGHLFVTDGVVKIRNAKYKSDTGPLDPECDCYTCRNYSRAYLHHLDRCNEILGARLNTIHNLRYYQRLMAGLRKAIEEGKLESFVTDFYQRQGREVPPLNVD
# RUN DESCRIPTION: TGT labeling of DNA/RNA hairpin oligos with PreQ1 probes, urea PAGE gel shift
# Type: biochemical, E. coli
# CONDITION: extended stem DNA analog of ECYA1 with minimal recognition element mutations; PreQ1-biotin probe; denaturing urea PAGE shift and intensity

BIOPOLYMER SEQUENCE	TARGET OR TEST SYSTEM	turn over by TGT
GGGAGCAGACTGTAAATCTGCTCCC [dTdGdT]	tRNA guanine transglycosylase (TGT) (Escherichia coli)	no appreciable turn over
GGGAGCAGACUGTAAATCTGCTCCC [dUdGdT]	tRNA guanine transglycosylase (TGT) (Escherichia coli)	no appreciable turn over
